Test system: Brain
Assay: Drug uptake in overnight fasted Sprague-Dawley rat brain at 0.7 to 1.4 MBq, iv at 120 mins
Format: ADME, organism-based
Conditions: in vivo, 2 h
PROPERTY LABEL: Drug uptake (%IDKg/g)

O=C(O)CCCCSCCCCCCCCCCCC[18F]: 0.022
O=C(O)CCSCCCCCCCCCCCC[18F]: 0.0154

P = O=C(O)CCSCCCC/C=C\CCCCCCCC[18F]
Q = O=C(O)CCSCCCCCCCCCCCCCC[18F]
Input line: Sort P and Q by Drug uptake descending and give the first. Your answer should be the label attached to the chosen record.
Output line: P
(P: 0.0215 %IDKg/g, Q: 0.0143 %IDKg/g)

* * *

System: Liver
Assay: Biodistribution in overnight fasted Sprague-Dawley rat liver organic fraction at 0.7 to 1.4 MBq, iv at 120 mins by Folch-type extraction method
Type: ADME, organism-based
Conditions: in vivo, 2 h
PROPERTY LABEL: Drug uptake (%)

O=C(O)CCCCSCCCCCCCCCCCC[18F]: 35.26
O=C(O)CCSCCCCCCCCCCCC[18F]: 31.39

A = O=C(O)CCSCCCC/C=C\CCCCCCCC[18F]
B = O=C(O)CCSCCCCCCCCCCCCCC[18F]
Input line: Field: lower recorded Drug uptake (choose A or B ) Your answer should be the label attached to the chosen record.
Output line: A
(A: 34.75%, B: 55.69%)

* * *

System: Heart
Assay: Biodistribution in overnight fasted Sprague-Dawley rat heart pellet fraction at 0.7 to 1.4 MBq, iv at 30 mins by Folch-type extraction method
Format: ADME, organism-based
Conditions: in vivo, 0.5 h
PROPERTY LABEL: Drug uptake (%)

O=C(O)CCCCSCCCCCCCCCCCC[18F]: 70.16
O=C(O)CCSCCCCCCCCCCCC[18F]: 58.8
O=C(O)CCSCCCC/C=C\CCCCCCCC[18F]: 88.67
O=C(O)CCSCCCCCCCCCCCCCC[18F]: 78.72

* * *

Tested on: Lung
Experiment: Drug uptake in overnight fasted Sprague-Dawley rat lung at 0.7 to 1.4 MBq, iv at 120 mins
Type: ADME, organism-based
Conditions: in vivo, 2 h
PROPERTY LABEL: Drug uptake (%IDKg/g)

O=C(O)CCSCCCC/C=C\CCCCCCCC[18F]: 0.0228

I = O=C(O)CCCCSCCCCCCCCCCCC[18F]
II = O=C(O)CCSCCCCCCCCCCCCCC[18F]
III = O=C(O)CCSCCCCCCCCCCCC[18F]
Input line: Rank items: key Drug uptake, increasing. Would you mind listing the labels in the order asked for?
Output line: III, II, I

* * *

Test system: Liver
Assay: Biodistribution in overnight fasted Sprague-Dawley rat liver organic fraction at 0.7 to 1.4 MBq, iv preincubated with POCA for 2 hrs before compound administration measured at 120 mins post treatment by Folch-type extraction method
Type: ADME, organism-based
Settings: in vivo
PROPERTY LABEL: Drug uptake (%)

O=C(O)CCSCCCCCCCCCCCC[18F]: 50
O=C(O)CCCCSCCCCCCCCCCCC[18F]: 64.78
O=C(O)CCSCCCCCCCCCCCCCC[18F]: 67.69
O=C(O)CCSCCCC/C=C\CCCCCCCC[18F]: 68.06

* * *

Tested on: Heart
Assay: Biodistribution in overnight fasted Sprague-Dawley rat heart aqueous fraction at 0.7 to 1.4 MBq, iv at 120 mins by Folch-type extraction method
Assay type: ADME, organism-based
Conditions: in vivo, 2 h
PROPERTY LABEL: Drug uptake (%)

Solved cases below.
O=C(O)CCSCCCCCCCCCCCCCC[18F]: 2.39
O=C(O)CCSCCCCCCCCCCCC[18F]: 4.17

P = O=C(O)CCCCSCCCCCCCCCCCC[18F]
Q = O=C(O)CCSCCCC/C=C\CCCCCCCC[18F]
Input line: Sort P and Q by Drug uptake descending and give the first. Your answer should be the label attached to the chosen record.
Output line: P
